biological target: T1, Human IL-13 (human, UniProt P35225 35-146); test: biochemical receptor-ligand inhibition assay, purified scFv titrated; the IL-13 receptor used is not named in Example 1
T1 construct: also called human interleukin 13 (Peprotech); the antigen
T1 sequence (P35225 35-146 limits assumed): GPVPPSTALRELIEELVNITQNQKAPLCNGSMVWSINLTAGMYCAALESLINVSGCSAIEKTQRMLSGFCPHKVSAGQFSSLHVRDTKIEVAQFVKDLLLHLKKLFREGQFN
readout: IC50

Reference set (2 entries):
Return IC50 for the following binder: 13NG0074 (antibody, V domains shown, IgG in the KinExA assay) VH: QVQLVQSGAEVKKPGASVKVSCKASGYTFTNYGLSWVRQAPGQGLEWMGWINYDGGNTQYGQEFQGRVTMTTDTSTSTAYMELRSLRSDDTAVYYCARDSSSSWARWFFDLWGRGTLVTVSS VL: SYVLTQPPSVSVAPGKTARIPCGGNLIGARLVHWYQQKPGQAPVLIMFDDQDRPSGIPERFSGSNSGNTATLTISRVEAGDEADYYCQVWDTGSLPVVFGGGTKLTVL
10.8 nM

Hello, please tell me recorded IC50 for this one: 13NG0076 (scFv, V domains shown, purified scFv from the mini-recombination library; member of group m20; also called ZZ0SEA-F10; copies: 1 + 1) VH: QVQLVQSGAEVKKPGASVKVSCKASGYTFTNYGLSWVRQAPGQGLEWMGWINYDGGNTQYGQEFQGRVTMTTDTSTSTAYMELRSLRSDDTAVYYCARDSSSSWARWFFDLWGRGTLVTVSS VL: SYVLTQPPSVSVAPGKTARIPCGGNMVGARLVHWYQQKPGQAPVLVIMDDIDRPSGIPERFSGSNSGNTATLTISRVEAGDEADYYCQVWDTGSRPVVFGGGTKLTVL
7.98 nM

Next, consider the following binder.
Given 13NG0077 (scFv, V domains shown, purified scFv from the mini-recombination library; member of group m20; also called ZZ0SED-A07; copies: 1 + 1) VH: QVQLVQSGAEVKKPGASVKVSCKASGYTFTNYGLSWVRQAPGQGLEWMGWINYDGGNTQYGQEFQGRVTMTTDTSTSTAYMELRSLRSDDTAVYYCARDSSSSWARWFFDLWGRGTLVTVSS VL: SYVLTQPPSVSVAPGKTARIPCGGNMVGAYLVHWYQQKPGQAPVLIVYDDMDRPSGIPERFSGSNSGNTATLTISRVEAGDEADYYCQVWDTGSSPVVFGGGTKLTVL , respond with its IC50.
10.3 nM
